- tgt: melanocortin-4 receptor (Homo sapiens)
- Construct: expressed in transfected cells; host or cells: HEK293 cells (membrane preparations)
- assay.notes: Functional assay (cAMP fluorescence polarization, membrane based, agonistic activity)
- Format: biochemical
- conditions.used: 2 h; read-out: % activation functional assay
test.readout: Emax (%)
Please reply with the bare figure in % and do not write the unit itself.

Check out these entries, answers already filled in.
Provide the documented Emax with melanocortin-4 receptor (Homo sapiens) as the system for `CC(C)CCN(CCC(C)C)C(=O)c1ccc2nc(-c3ccccc3)c(CN3CCC(N)CC3)n2c1`
0

Provide the documented Emax with melanocortin-4 receptor (Homo sapiens) as the system for `Cc1ccnc(-c2nc3ccc(C(=O)N(CCC(C)C)CCC(C)C)cn3c2CCCN2CCCC2)c1`
0

Provide the documented Emax with melanocortin-4 receptor (Homo sapiens) as the system for CC1CCCN1CCCc1c(-c2ccc(=O)[nH]c2)nc2ccc(C(=O)N(CCC3CC3)CCC3CC3)cn12 (stereo not shown)
-23

---
Provide the documented Emax with melanocortin-4 receptor (Homo sapiens) as the system for `O=C(c1ccc2nc(-c3ccc(OCCO)nc3)c(CCCN3CCCC3)n2c1)N(CCC1CC1)CCC1CC1`
-19

====

- tgt: melanocortin-4 receptor (Homo sapiens, UniProt P32245)
- Construct: expressed in transfected cells; host or cells: HEK293 cells (membrane preparations)
- Sequence (P32245 whole entry): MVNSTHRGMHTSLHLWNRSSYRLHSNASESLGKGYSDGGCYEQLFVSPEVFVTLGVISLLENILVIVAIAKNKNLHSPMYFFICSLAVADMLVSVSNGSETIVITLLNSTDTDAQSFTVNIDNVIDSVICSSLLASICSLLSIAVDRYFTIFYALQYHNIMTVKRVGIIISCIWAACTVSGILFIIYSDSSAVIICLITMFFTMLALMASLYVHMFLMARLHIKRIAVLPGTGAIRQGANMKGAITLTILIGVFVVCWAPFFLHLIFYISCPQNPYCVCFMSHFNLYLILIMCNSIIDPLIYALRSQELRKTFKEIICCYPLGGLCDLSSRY
- assay.notes: Functional assay (cAMP fluorescence polarization, membrane based, agonistic activity)
- Assay type: biochemical
- conditions.used: 2 h; read-out: % activation functional assay
Measured Emax values are reported for all entries that follow.
Please reply with the bare figure in % and do not write the unit itself.

Provide the documented Emax with melanocortin-4 receptor (Homo sapiens, UniProt P32245) as the system for COc1cccc(-c2nc3ccc(C(=O)N(CCC(C)C)CCC(C)C)cn3c2CCCNC(C)C)c1 [Example 7]
0

---
Provide the documented Emax with melanocortin-4 receptor (Homo sapiens, UniProt P32245) as the system for CC(C)CCN(CCC(C)C)C(=O)c1ccc2nc(-c3ncco3)c(CCCN3CCC[C@H]3C)n2c1 [Example 86]
-11

Provide the documented Emax with melanocortin-4 receptor (Homo sapiens, UniProt P32245) as the system for COc1cccc(-c2nc3ccc(C(=O)N(CCC(C)C)CCC(C)C)cn3c2CCCN2CCC2)c1 [Example 11]
0

Provide the documented Emax with melanocortin-4 receptor (Homo sapiens, UniProt P32245) as the system for CC(C)CCN(CCC(C)C)C(=O)c1ccc2nc(-c3cc(O)ccn3)c(CCCN(C)C)n2c1 [Example 46]
0

====

- tgt: melanocortin-4 receptor (Homo sapiens)
- Construct: expressed in transfected cells; host or cells: HEK293 cells (membrane preparations)
- assay.notes: Functional assay (cAMP fluorescence polarization, membrane based, agonistic activity)
- Assay type: biochemical
- conditions.used: agonistic activity, cAMP, HEK293 membrane preparations; read-out: hMC-4R functional assay EC50/μM
test.readout: EC50

Check out these entries, answers already filled in.
Tell me the measured EC50 of `COc1cccc(-c2nc3ccc(C(=O)N(CCC(C)C)CCC(C)C)cn3c2CCCN2CC[C@@H](O)C2)c1` , please.
< 0.1 µM

Tell me the measured EC50 of `COc1cccc(-c2nc3ccc(C(=O)N(CCC(C)C)CCC(C)C)cn3c2CCCN2CC[C@H](O)C2)c1` , please.
< 0.1 µM

Tell me the measured EC50 of `CC(C)CCN(CCC(C)C)C(=O)c1ccc2nc(-c3ccc(OCCCO)nc3)c(CCCN3CCCC3)n2c1` , please.
< 0.1 µM

Tell me the measured EC50 of `COc1ccc(-c2nc3ccc(C(=O)N(CCC(C)C)CCC(C)C)cn3c2CCCN2CCCC2)cn1` , please.
< 0.1 µM

We now examine a further compound.
Tell me the measured EC50 of `CC(C)CCN(CCC(C)C)C(=O)c1ccc2nc(-c3ncco3)c(CCCN3CC[C@H](O)C3)n2c1` , please.
0.1 to 1 µM

====

- tgt: melanocortin-4 receptor (Homo sapiens, UniProt P32245)
- Construct: expressed in transfected cells; host or cells: HEK293 cells (membrane preparations)
- assay.notes: Functional assay (cAMP fluorescence polarization, membrane based, agonistic activity)
- Format: biochemical
- conditions.used: 2 h; read-out: % activation functional assay
Measured Emax values are reported for all entries that follow.
Please reply with the bare figure in % and do not write the unit itself.

Provide the documented Emax with melanocortin-4 receptor (Homo sapiens, UniProt P32245) as the system for `CC(C)CCN(CCC(C)C)C(=O)c1ccc2nc(-c3ccc(C(N)=O)cc3)c(CCCN3CCCC3)n2c1`
0

====

Measured IC50 values are reported for all entries that follow.
- tgt: melanocortin-4 receptor (Homo sapiens, UniProt P32245)
- Construct: expressed in transfected cells; host or cells: HEK293 cells (membrane preparations)
- assay.notes: Membrane binding assay (fluorescence polarization, competition with fluorescence labeled NDP-alpha-MSH)
- conditions.used: read-out: hMC-4R binding assay IC50/μM

Check out these entries, answers already filled in.
Tell me the measured IC50 of CC(C)CCN(CCC(C)C)C(=O)c1ccc2nc(-c3ccc(N(C)C)nc3)c(CCCN(C)C)n2c1 [Example 51] , please.
< 0.1 µM

Tell me the measured IC50 of CC(C)CCN(CCC(C)C)C(=O)c1ccc2nc(-c3ncco3)c(CCCN3CCC[C@H]3CO)n2c1 [Example 76] , please.
0.1 to 1 µM

Tell me the measured IC50 of CC(C)CCN(CCC(C)C)C(=O)c1ccc2nc(-c3ccc(=O)[nH]c3)c(CCCN3CCCC3C)n2c1 (stereo not drawn) [Example 100] , please.
< 0.1 µM

Tell me the measured IC50 of CC(C)CCN(CCC(C)C)C(=O)c1ccc2nc(-c3cccc(=O)[nH]3)c(CCCN3CCCC3)n2c1 [Example 62] , please.
0.1 to 1 µM

Tell me the measured IC50 of CC(C)CCN(CCC(C)C)C(=O)c1ccc2nc(-c3ncccn3)c(CCCN3CCCC3)n2c1 [Example 84] , please.
< 0.1 µM

Tell me the measured IC50 of Cc1nc(C)c(-c2nc3ccc(C(=O)N(CCC(C)C)CCC(C)C)cn3c2CCCN2CCCC2)o1 [Example 48] , please.
< 0.1 µM

Tell me the measured IC50 of CCCCN(CCCC)C(=O)c1ccc2nc(-c3ccc(C#N)cc3)c(CCCN3CCCC3)n2c1 [Example 142] , please.
< 0.1 µM

Tell me the measured IC50 of CC(C)CCN(CCC(C)C)C(=O)c1ccc2nc(-c3cc[nH]c(=O)c3)c(CCCN3CCCC3)n2c1 [Example 89] , please.
< 0.1 µM

---
Tell me the measured IC50 of COc1cccc(-c2nc3ccc(C(=O)N(CCC(C)C)CCC(C)C)cn3c2CCCNC(C)C)c1 [Example 7] , please.
0.1 to 1 µM

Tell me the measured IC50 of CC(C)CCN(CCC(C)C)C(=O)c1ccc2nc(-c3ccc(C#N)cc3)c(CCN3CCCC3)n2c1 [Example 26] , please.
0.1 to 1 µM

Tell me the measured IC50 of CC1CCCN1CCCc1c(-c2ccc(=O)[nH]c2)nc2ccc(C(=O)N(CCC3CC3)CCC3CC3)cn12 (stereo not drawn) [Example 109] , please.
< 0.1 µM

Tell me the measured IC50 of CC(C)CCN(CCC(C)C)C(=O)c1ccc2nc(-c3ccc(C(=O)O)cc3)c(CCCN3CCCC3)n2c1 [Example 50] , please.
0.1 to 1 µM

Tell me the measured IC50 of CC(=O)OCCOc1ccc(-c2nc3ccc(C(=O)N(CCC(C)C)CCC(C)C)cn3c2CCCN2CCCC2)cn1 [Example 97] , please.
< 0.1 µM

Tell me the measured IC50 of O=C(c1ccc2nc(-c3ccc(OCCO)nc3)c(CCCN3CCCC3)n2c1)N(CCC1CC1)CCC1CC1 [Example 108] , please.
0.1 to 1 µM

Tell me the measured IC50 of CC(C)CCN(CCC(C)C)C(=O)c1ccc2nc(-c3ccc(=O)[nH]c3)c(CCCN3CCCC3)n2c1 [Example 59] , please.
< 0.1 µM

====

- tgt: melanocortin-4 receptor (Homo sapiens, UniProt P32245)
- Construct: expressed in transfected cells; host or cells: HEK293 cells (membrane preparations)
- assay.notes: Functional assay (cAMP fluorescence polarization, membrane based, agonistic activity)
- Type: biochemical
- conditions.used: 2 h; read-out: % activation functional assay
test.readout: Emax (%)
Please reply with the bare figure in % and do not write the unit itself.

Check out these entries, answers already filled in.
Provide the documented Emax with melanocortin-4 receptor (Homo sapiens, UniProt P32245) as the system for CC(C)CCN(CCC(C)C)C(=O)c1ccc2nc(-c3ncco3)c(CCCN3CCCC3C)n2c1 (stereo not drawn)
0

Provide the documented Emax with melanocortin-4 receptor (Homo sapiens, UniProt P32245) as the system for `CC(C)CCN(CCC(C)C)C(=O)c1ccc2nc(-c3cccnc3N)c(CCCN(C)C)n2c1`
0

Provide the documented Emax with melanocortin-4 receptor (Homo sapiens, UniProt P32245) as the system for `CC(C)CCN(CCC(C)C)C(=O)c1ccc2nc(-c3ccc(N)nc3)c(CCCN3CCCC3)n2c1`
0

Provide the documented Emax with melanocortin-4 receptor (Homo sapiens, UniProt P32245) as the system for `COc1cccc(-c2nc3ccc(C(=O)N(CCC(C)C)CCC(C)C)cn3c2CCCN(C)C)c1`
0

Provide the documented Emax with melanocortin-4 receptor (Homo sapiens, UniProt P32245) as the system for CC(C)CCN(CCC(C)C)C(=O)c1ccc2nc(-c3ccc(Cl)cc3)c(CN3CCN4CCCC4C3)n2c1 (stereo not drawn)
0

Provide the documented Emax with melanocortin-4 receptor (Homo sapiens, UniProt P32245) as the system for `COCCn1cc(-c2nc3ccc(C(=O)N(CCC(C)C)CCC(C)C)cn3c2CCCN2CCCC2)ccc1=O`
0

Provide the documented Emax with melanocortin-4 receptor (Homo sapiens, UniProt P32245) as the system for `COc1cccc(-c2nc3ccc(C(=O)N(CCC(C)C)CCC(C)C)cn3c2CCCN2CCCCC2)c1`
0

Provide the documented Emax with melanocortin-4 receptor (Homo sapiens, UniProt P32245) as the system for `CC(C)CCN(CCC(C)C)C(=O)c1ccc2nc(-c3cccc(=O)[nH]3)c(CCCN3CCCC3)n2c1`
0

Provide the documented Emax with melanocortin-4 receptor (Homo sapiens, UniProt P32245) as the system for `CC(C)CCN(CCC(C)C)C(=O)c1ccc2nc(-c3ccc(C(F)(F)F)cc3)c(CN3CCC(N)CC3)n2c1`
0

Provide the documented Emax with melanocortin-4 receptor (Homo sapiens, UniProt P32245) as the system for `CC(C)CCN(CCC(C)C)C(=O)c1ccc2nc(-c3ccc(Cl)cc3)c(CCCN3CCCC3)n2c1`
0

---
Provide the documented Emax with melanocortin-4 receptor (Homo sapiens, UniProt P32245) as the system for CC(=O)OCCOc1ccc(-c2nc3ccc(C(=O)N(CCC(C)C)CCC(C)C)cn3c2CCCN2CCCC2C)cn1 (stereo not drawn)
-15

Provide the documented Emax with melanocortin-4 receptor (Homo sapiens, UniProt P32245) as the system for `CC(C)CCN(CCC(C)C)C(=O)c1ccc2nc(-c3ccc(Cl)cc3)c(CN3C[C@H]4CNC[C@H]4C3)n2c1`
0

Provide the documented Emax with melanocortin-4 receptor (Homo sapiens, UniProt P32245) as the system for `CCN(C)CCCCc1c(-c2ccc(Cl)cc2)nc2ccc(C(=O)N(CCC(C)C)CCC(C)C)cn12`
0

Provide the documented Emax with melanocortin-4 receptor (Homo sapiens, UniProt P32245) as the system for `CC(C)CCN(CCC(C)C)C(=O)c1ccc2nc(-c3ccc(-c4ccccn4)s3)c(CN3CCC(N)CC3)n2c1`
0

Provide the documented Emax with melanocortin-4 receptor (Homo sapiens, UniProt P32245) as the system for `CC(=O)OCCOc1ccc(-c2nc3ccc(C(=O)N(CCC4CC4)CCC4CC4)cn3c2CCCN2CCCC2)cn1`
0

Provide the documented Emax with melanocortin-4 receptor (Homo sapiens, UniProt P32245) as the system for `CC(C)CCN(CCC(C)C)C(=O)c1ccc2nc(-c3ccc(C#N)cc3)c(CN3CCC(N)CC3)n2c1`
0

Provide the documented Emax with melanocortin-4 receptor (Homo sapiens, UniProt P32245) as the system for `COc1cccc(-c2nc3ccc(C(=O)N(CCC(C)C)CCC(C)C)cn3c2CN2CCNCC2)c1`
0

Provide the documented Emax with melanocortin-4 receptor (Homo sapiens, UniProt P32245) as the system for `CCN(CC)CCCc1c(-c2cccc(OC)c2)nc2ccc(C(=O)N(CCC(C)C)CCC(C)C)cn12`
0

Provide the documented Emax with melanocortin-4 receptor (Homo sapiens, UniProt P32245) as the system for `CC(C)CCN(CCC(C)C)C(=O)c1ccc2nc(-c3ccc(OCCCO)nc3)c(CCCN3CCCC3)n2c1`
-31

Provide the documented Emax with melanocortin-4 receptor (Homo sapiens, UniProt P32245) as the system for `COc1cccc(-c2nc3ccc(C(=O)N(CCC(C)C)CCC(C)C)cn3c2CCCN2CC[C@@H](F)C2)c1`
0

Provide the documented Emax with melanocortin-4 receptor (Homo sapiens, UniProt P32245) as the system for CC(C)CCN(CCC(C)C)C(=O)c1ccc2nc(-c3ccc(=O)n(CC(C)O)c3)c(CCCN3CCCC3)n2c1 (stereo not drawn)
0

Provide the documented Emax with melanocortin-4 receptor (Homo sapiens, UniProt P32245) as the system for `Cc1cccc(-c2nc3ccc(C(=O)N(CCC(C)C)CCC(C)C)cn3c2CCCN2CCCC2)n1`
0

Provide the documented Emax with melanocortin-4 receptor (Homo sapiens, UniProt P32245) as the system for CC(C)CCN(CCC(C)C)C(=O)c1ccc2nc(-c3ccc(OCC(C)O)nc3)c(CCCN3CCCC3)n2c1 (stereo not drawn)
-13

Source: patent US8236818B2
